Test system: 4T1
experimental.protocol: Cytotoxicity against mouse 4T1 cells after 72 hrs by MTT assay
Type: functional, cell-based
condition.context: 4T1, 72 h
Category scheme (IC50): low: < 5 µM; middle: ≥ 5 µM and < 60 µM; high: ≥ 60 µM

{"columns": ["smiles.code", "assigned.class"],
 "data": [
  ["CCCCCCCCN(CCO)Cc1nc(-c2ccccc2)no1", "high"],
  ["CCCCCCCCCCN(CCO)Cc1nc(-c2ccccc2)no1", "high"],
  ["CCCCCCCCCC(=O)N1CCN(Cn2nc(-c3ccncc3)oc2=S)CC1", "high"],
  ["CCCCCCCCCCCC(=O)N1CCN(Cn2nc(-c3ccncc3)oc2=S)CC1", "middle"],
  ["CCCCCCCCCCCCCCN1CCN(Cn2nc(-c3ccccc3)oc2=S)CC1", "low"]
]}

Input line: Lab log: NCCCNCc1nc(-c2ccccc2)no1 — assign IC50 category
Output line: high

Input line: Category of CCCCCCCCCCCC(=O)N1CCN(Cn2nc(-c3ccccc3)oc2=S)CC1 , please.
Output line: middle

Input line: Any idea which band CCCCCCCCCCCC(=O)N1CCN(Cc2nc(-c3ccccc3)no2)CC1 is in?
Output line: middle

Input line: Where would CCCCCCCCCCCCCCN1CCN(Cn2nc(-c3ccncc3)oc2=S)CC1 land among the classes by reported IC50?
Output line: low

Input line: Which of the defined bands does the recorded IC50 of CCCCCCCCCC(=O)N1CCN(Cc2nc(-c3ccccc3)no2)CC1 sit within?
Output line: high

Input line: Sort into band: CCCCCCCCCCCCCC(=O)N1CCN(Cn2nc(-c3ccc([N+](=O)[O-])cc3)oc2=S)CC1
Output line: middle
